B1: Caulobacter ParB omega fusion; a variant is named by its letters at X, in order, B8GW30 (parent)
chain: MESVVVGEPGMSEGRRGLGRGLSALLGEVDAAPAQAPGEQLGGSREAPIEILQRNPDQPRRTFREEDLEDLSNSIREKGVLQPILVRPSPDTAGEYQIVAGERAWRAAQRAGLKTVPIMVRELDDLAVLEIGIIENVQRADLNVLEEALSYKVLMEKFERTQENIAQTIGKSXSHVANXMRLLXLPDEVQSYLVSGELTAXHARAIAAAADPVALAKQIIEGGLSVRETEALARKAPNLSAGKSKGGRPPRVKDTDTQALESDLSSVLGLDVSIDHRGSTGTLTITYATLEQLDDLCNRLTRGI

Variants of: B1
Test: one-hybrid fitness for binding parS DNA (scaled: cognate 1, non-cognate 0); higher = stronger binding
Conditions: with parS DNA site
The full ranking holds about 81,000 sequences; the median of “one-hybrid fitness for binding parS DNA” is about -0.17, and the highest 2% start at about 0.51. The sample as a whole holds a higher share of the highest values than the screen did.
Listed here are variants together with their documented one-hybrid fitness for binding parS DNA.
Please reply with the number alone, leaving off any unit.

Reference set (4 entries):
RAQA = 0.548
RARA = 0.658
RVTA = 0.578
RYKY = 0.514

Let us examine a further case.
[ask] Provide measured one-hybrid fitness for binding parS DNA value, entry: "RAYN"
[reply] 0.445
